target: Lscγ (Pseudomonas syringae pv. actinidiae, UniProt A0A2V0R8Y2)
Construct: 6His-tag (TEV-cleavable) (cleaved yes); made in house; host or cells: E. coli BL21 (DE3)
Sequence (A0A2V0R8Y2 whole entry): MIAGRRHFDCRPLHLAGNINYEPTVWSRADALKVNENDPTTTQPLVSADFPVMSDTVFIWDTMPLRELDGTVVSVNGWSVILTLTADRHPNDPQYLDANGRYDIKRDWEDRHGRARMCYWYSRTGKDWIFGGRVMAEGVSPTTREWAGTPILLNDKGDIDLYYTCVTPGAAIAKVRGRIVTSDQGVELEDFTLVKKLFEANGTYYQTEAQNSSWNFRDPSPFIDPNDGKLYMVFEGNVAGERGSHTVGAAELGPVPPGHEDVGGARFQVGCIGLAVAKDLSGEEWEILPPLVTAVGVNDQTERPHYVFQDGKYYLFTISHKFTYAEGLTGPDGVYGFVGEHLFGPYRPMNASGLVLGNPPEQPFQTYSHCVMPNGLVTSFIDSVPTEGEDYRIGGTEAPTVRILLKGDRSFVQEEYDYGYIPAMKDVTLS
assay protocol: Sucrose hydrolysis assay on recombinant Lscγ (DNS glucose quantification)
Type: biochemical, Pseudomonas syringae pv actinidiae biovar 3 (Psa3)
experimental parameters: 60 mM sucrose, pH 7.0

compound structure string	IC50
OC[C@H]1NC[C@@H](O)[C@@H]1O	> 100 µM
OCCc1cn(CCCCCCN2C[C@@H](O)[C@H](O)[C@H]2CO)nn1	> 1000 µM
OC[C@@H]1[C@@H](O)[C@H](O)CN1CCCCCCn1cc(COCC(COCc2cn(CCCCCCN3C[C@@H](O)[C@H](O)[C@H]3CO)nn2)(COCc2cn(CCCCCCN3C[C@@H](O)[C@H](O)[C@H]3CO)nn2)COCc2cn(CCCCCCN3C[C@@H](O)[C@H](O)[C@H]3CO)nn2)nn1	60.9 µM
OC[C@@H]1[C@@H](O)[C@H](O)CN1CCO[C@@H]1O[C@H](CO)[C@@H](O)[C@H](O)[C@H]1O	> 100 µM
